Origin of measurements: ChEMBL document CHEMBL1135138

# testedSystem: Adenosine receptor A1 (Homo sapiens) (UniProt P30542)
# Sequence (whole entry): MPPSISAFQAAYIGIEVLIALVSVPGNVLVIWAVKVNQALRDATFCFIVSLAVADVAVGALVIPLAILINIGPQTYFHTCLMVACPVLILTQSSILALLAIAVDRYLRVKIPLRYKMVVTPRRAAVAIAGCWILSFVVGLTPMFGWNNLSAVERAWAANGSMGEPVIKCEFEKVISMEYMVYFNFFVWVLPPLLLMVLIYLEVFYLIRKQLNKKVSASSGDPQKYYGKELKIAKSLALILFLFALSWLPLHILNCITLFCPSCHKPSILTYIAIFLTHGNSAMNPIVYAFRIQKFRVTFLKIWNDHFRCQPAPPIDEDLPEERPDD
# experimentalProtocol: AE activity is the ratio of specific binding at the end of dissociation to specific binding at the end of 120 min of equilibration at 5 uM concentration to Adenosine A1 receptor

[
  {
    "compoundString": "Nc1nc2c(s1)CCc1cc(OC(=O)c3ccccc3)ccc1-2",
    "AE activity [%]": 54
  },
  {
    "compoundString": "COc1cc2c(c(OC)c1OC)Cc1sc(N)nc1-2",
    "AE activity [%]": 60
  },
  {
    "compoundString": "CCCCCCCCOc1ccc2c(c1)CCc1sc(N)nc1-2",
    "AE activity [%]": 45
  },
  {
    "compoundString": "CCCCCOc1ccc2c(c1)CCc1sc(N)nc1-2",
    "AE activity [%]": 41
  },
  {
    "compoundString": "CC(=O)Oc1cccc2c1Cc1sc(N)nc1-2",
    "AE activity [%]": 74
  }
]

----------
# testedSystem: Adenosine receptor A1 (Homo sapiens, UniProt P30542)
# Sequence (P30542 whole entry): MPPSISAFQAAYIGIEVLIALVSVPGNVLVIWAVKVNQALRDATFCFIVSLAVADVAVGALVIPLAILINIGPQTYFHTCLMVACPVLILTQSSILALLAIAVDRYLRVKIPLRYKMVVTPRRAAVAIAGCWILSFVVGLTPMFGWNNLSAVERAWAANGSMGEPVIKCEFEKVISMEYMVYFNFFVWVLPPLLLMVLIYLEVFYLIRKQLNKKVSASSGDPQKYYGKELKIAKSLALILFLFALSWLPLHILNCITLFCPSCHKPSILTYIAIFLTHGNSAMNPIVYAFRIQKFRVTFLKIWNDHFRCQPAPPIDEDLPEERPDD
# experimentalProtocol: Effective concentration against Adenosine A1 receptor
Consider the cut-off 20 µM. If the recorded EC50 is strictly smaller, the label is satisfied; if not, the label is not satisfied.

[
  {
    "compoundString": "Cc1ccc2c(c1)-c1nc(N)sc1C2",
    "testedSystem": "Adenosine receptor A1 (Homo sapiens, UniProt P30542)",
    "class": "satisfied"
  },
  {
    "compoundString": "Nc1nc2c(s1)Cc1c(OC(=O)C3CCCC3)cccc1-2",
    "testedSystem": "Adenosine receptor A1 (Homo sapiens, UniProt P30542)",
    "class": "satisfied"
  },
  {
    "compoundString": "Nc1nc2c(s1)CCc1ccccc1-2",
    "testedSystem": "Adenosine receptor A1 (Homo sapiens, UniProt P30542)",
    "class": "satisfied"
  },
  {
    "compoundString": "COc1cc2c(c(OC)c1OC)Cc1sc(N)nc1-2",
    "testedSystem": "Adenosine receptor A1 (Homo sapiens, UniProt P30542)",
    "class": "satisfied"
  },
  {
    "compoundString": "Nc1nc2c(s1)Cc1ccccc1-2",
    "testedSystem": "Adenosine receptor A1 (Homo sapiens, UniProt P30542)",
    "class": "not satisfied"
  },
  {
    "compoundString": "COc1ccc2c(c1)Cc1sc(N)nc1-2",
    "testedSystem": "Adenosine receptor A1 (Homo sapiens, UniProt P30542)",
    "class": "not satisfied"
  }
]

----------
# testedSystem: Adenosine receptor A1 (Homo sapiens) (UniProt P30542)
# experimentalProtocol: AE activity is the ratio of specific binding at the end of dissociation to specific binding at the end of 120 min of equilibration at 50 uM concentration to Adenosine A1 receptor
Below, each entry is listed with its recorded AE activity.
measuredMetric: AE activity (%)

[
  {
    "compoundString": "Cc1ccc2c(c1)-c1nc(N)sc1C2",
    "testedSystem": "Adenosine receptor A1 (Homo sapiens) (UniProt P30542)",
    "experimentalValue": 72
  },
  {
    "compoundString": "Nc1nc2c(s1)COc1ccccc1-2",
    "testedSystem": "Adenosine receptor A1 (Homo sapiens) (UniProt P30542)",
    "experimentalValue": 62
  },
  {
    "compoundString": "Nc1nc2c(s1)CCCC2",
    "testedSystem": "Adenosine receptor A1 (Homo sapiens) (UniProt P30542)",
    "experimentalValue": 19
  },
  {
    "compoundString": "COc1cc2c(c(OC)c1OC)-c1nc(N)sc1C2",
    "testedSystem": "Adenosine receptor A1 (Homo sapiens) (UniProt P30542)",
    "experimentalValue": 24
  },
  {
    "compoundString": "CC(=O)Oc1ccc2c(c1)CCc1sc(N)nc1-2",
    "testedSystem": "Adenosine receptor A1 (Homo sapiens) (UniProt P30542)",
    "experimentalValue": 95
  },
  {
    "compoundString": "Nc1nc2c(s1)Cc1ccccc1-2",
    "testedSystem": "Adenosine receptor A1 (Homo sapiens) (UniProt P30542)",
    "experimentalValue": 91
  },
  {
    "compoundString": "COc1ccc2c(c1)CCc1sc(N)nc1-2",
    "testedSystem": "Adenosine receptor A1 (Homo sapiens) (UniProt P30542)",
    "experimentalValue": 78
  },
  {
    "compoundString": "Nc1nc2c(s1)CCc1ccccc1-2",
    "testedSystem": "Adenosine receptor A1 (Homo sapiens) (UniProt P30542)",
    "experimentalValue": 80
  },
  {
    "compoundString": "COc1ccc2c(c1)Cc1sc(N)nc1-2",
    "testedSystem": "Adenosine receptor A1 (Homo sapiens) (UniProt P30542)",
    "experimentalValue": 66
  },
  {
    "compoundString": "Nc1nc2c(s1)Cc1c(OC(=O)C3CCCC3)cccc1-2",
    "testedSystem": "Adenosine receptor A1 (Homo sapiens) (UniProt P30542)",
    "experimentalValue": 85
  },
  {
    "compoundString": "COc1cc2c(cc1OC)-c1nc(N)sc1C2",
    "testedSystem": "Adenosine receptor A1 (Homo sapiens) (UniProt P30542)",
    "experimentalValue": 78
  },
  {
    "compoundString": "Cc1cccc2c1Cc1sc(N)nc1-2",
    "testedSystem": "Adenosine receptor A1 (Homo sapiens) (UniProt P30542)",
    "experimentalValue": 81
  }
]

----------
# testedSystem: Adenosine receptor A3 (Homo sapiens)
# experimentalProtocol: Percent allosteric enhancer (AE) activity from ratio of specific binding to Adenosine A3 receptor at end of dissociation to that of 120 min of equilibration
Below, each entry is listed with its recorded AE activity.

[
  {
    "compoundString": "CC(=O)Oc1ccc2c(c1)CCc1sc(N)nc1-2",
    "units": "%",
    "AE activity": 30
  },
  {
    "compoundString": "CC(=O)Oc1cccc2c1Cc1sc(N)nc1-2",
    "units": "%",
    "AE activity": 22
  },
  {
    "compoundString": "COc1cc2c(cc1OC)-c1nc(N)sc1C2",
    "units": "%",
    "AE activity": 29
  },
  {
    "compoundString": "COc1ccc2c(c1)CCc1sc(N)nc1-2",
    "units": "%",
    "AE activity": 8
  }
]

----------
Below, each entry is listed with its recorded AE activity.
# testedSystem: Adenosine receptor A2a (Homo sapiens) (UniProt P29274)
# Sequence (P29274 whole entry): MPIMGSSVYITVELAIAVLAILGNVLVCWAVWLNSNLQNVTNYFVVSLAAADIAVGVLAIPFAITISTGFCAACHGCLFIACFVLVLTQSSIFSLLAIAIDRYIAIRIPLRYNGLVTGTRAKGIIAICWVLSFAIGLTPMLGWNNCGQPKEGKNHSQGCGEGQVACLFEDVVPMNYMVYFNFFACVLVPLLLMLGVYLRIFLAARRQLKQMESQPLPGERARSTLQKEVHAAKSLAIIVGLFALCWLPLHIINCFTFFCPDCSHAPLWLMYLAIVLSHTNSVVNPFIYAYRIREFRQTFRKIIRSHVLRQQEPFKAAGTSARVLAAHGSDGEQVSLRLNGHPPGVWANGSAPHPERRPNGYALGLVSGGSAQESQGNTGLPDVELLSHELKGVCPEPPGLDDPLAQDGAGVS
# experimentalProtocol: Percent allosteric enhancer (AE) activity from ratio of specific binding to Adenosine A2A receptor at end of dissociation to that of 120 min of equilibration
measuredMetric: AE activity

[
  {
    "compoundString": "COc1ccc2c(c1)CCc1sc(N)nc1-2",
    "measuredMetric": "AE activity",
    "experimentalValue": "18%"
  },
  {
    "compoundString": "CC(=O)Oc1cccc2c1Cc1sc(N)nc1-2",
    "measuredMetric": "AE activity",
    "experimentalValue": "19%"
  },
  {
    "compoundString": "CC(=O)Oc1ccc2c(c1)CCc1sc(N)nc1-2",
    "measuredMetric": "AE activity",
    "experimentalValue": "24%"
  },
  {
    "compoundString": "COc1cc2c(cc1OC)-c1nc(N)sc1C2",
    "measuredMetric": "AE activity",
    "experimentalValue": "36%"
  }
]
